# test.target: hQC (Homo sapiens)
# Sequence (Q16769 29-361): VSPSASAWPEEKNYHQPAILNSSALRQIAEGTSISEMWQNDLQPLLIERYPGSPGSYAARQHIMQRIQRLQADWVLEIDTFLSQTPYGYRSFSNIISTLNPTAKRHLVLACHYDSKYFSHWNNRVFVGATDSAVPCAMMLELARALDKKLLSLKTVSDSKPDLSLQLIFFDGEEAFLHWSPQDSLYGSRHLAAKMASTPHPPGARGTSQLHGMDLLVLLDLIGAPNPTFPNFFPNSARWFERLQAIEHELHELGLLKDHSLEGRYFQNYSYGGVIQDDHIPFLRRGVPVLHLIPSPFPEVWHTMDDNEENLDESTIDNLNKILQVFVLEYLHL
# experiment.summary: Inhibitor assay for glutaminyl cyclase activity (fluorometric, H-Gln-βNA / H-Gln-AMC)
# Format: biochemical
# experimental.parameters: read-out: IC50
parameter: log10 IC50 (log10 of the value in nM)

# compound, log10 IC50
records = [
    ("CC1=C(O)C(=O)N(CCCn2ccnc2)C1C1CCC=CO1 (centres unmarked)", 3.34),
    ("O=C1C(O)=C(c2cccc(O)c2)C(c2ccc3cccc(O)c3n2)N1c1ccc2[nH]cnc2c1 (centres unmarked)", 2.34),
    ("CC(=O)C1=C(O)C(=O)N(c2ccc3[nH]cnc3c2)C1c1cc(F)cc(F)c1F (centres unmarked)", 2.49),
    ("O=C(C1=C(O)C(=O)N(c2ccc3[nH]cnc3c2)C1c1ccc(CO)o1)c1ccncc1 (centres unmarked)", 3.57),
    ("CCCCCC1=C(O)C(=O)N(c2ccc3[nH]cnc3c2)C1c1ccccc1F (centres unmarked)", 2.97),
    ("O=C1C(O)=C(c2ccc(O)cc2)C(C2CC2)N1CCCn1ccnc1 (centres unmarked)", 1.60),
    ("CCC1=C(O)C(=O)N(CCCn2ccnc2)C1c1ccc(O)cc1 (centres unmarked)", 2.60),
    ("CC(C)CC(=O)C1=C(O)C(=O)N(c2ccc3[nH]cnc3c2)C1CCC(=O)O (centres unmarked)", 3.41),
]
